Tested on: MT4 CMV-EGFP cells
Experiment notes: Toxicity, mock-infected MT4 CMV-EGFP cells
Assay type: cell-based, human
Measured attribute: Toxicity MT4 (pCC50)

Use these answered entries as a reference point.
| Smiles data | Toxicity MT4 (pCC50) |
| --- | --- |
| CCN(C)c1nc2ccc(C(=O)N(CCN(C)C)C[C@@H](O)[C@H](Cc3ccccc3)NC(=O)OCc3cncs3)cc2o1 | <4.00 |
| CC(C)CN(C[C@@H](O)[C@H](Cc1ccccc1)NC(=O)OCc1cncs1)C(=O)c1ccc2nc(NCCCn3ccnc3)oc2c1 | <4.00 |
| O=C(N[C@@H](Cc1ccccc1)[C@H](O)CN(CC1CCC(F)(F)CC1)C(=O)c1ccc2nc(N3CCCC3)oc2c1)OCc1cncs1 | =4.38 |
| CN(C[C@@H](O)[C@H](Cc1ccccc1)NC(=O)OCc1cncs1)C(=O)c1ccc2nc(N3CCCC3)oc2c1 | <4.00 |
| CCN(C)c1nc2ccc(C(=O)N(CCN3CCOCC3)C[C@@H](O)[C@H](Cc3ccccc3)NC(=O)OCc3cncs3)cc2o1 | <4.00 |

Shifting focus to the compound that follows.
// map CCN(C)c1nc2ccc(C(=O)N(C[C@@H](O)[C@H](Cc3ccccc3)NC(=O)OCc3cncs3)CC(C)(C)C)cc2o1 to recorded Toxicity MT4 (pCC50) (system: MT4 CMV-EGFP cells)
=4.34

---

System under test: CYP2C9 (Homo sapiens, UniProt P11712)
Sequence (P11712 whole entry): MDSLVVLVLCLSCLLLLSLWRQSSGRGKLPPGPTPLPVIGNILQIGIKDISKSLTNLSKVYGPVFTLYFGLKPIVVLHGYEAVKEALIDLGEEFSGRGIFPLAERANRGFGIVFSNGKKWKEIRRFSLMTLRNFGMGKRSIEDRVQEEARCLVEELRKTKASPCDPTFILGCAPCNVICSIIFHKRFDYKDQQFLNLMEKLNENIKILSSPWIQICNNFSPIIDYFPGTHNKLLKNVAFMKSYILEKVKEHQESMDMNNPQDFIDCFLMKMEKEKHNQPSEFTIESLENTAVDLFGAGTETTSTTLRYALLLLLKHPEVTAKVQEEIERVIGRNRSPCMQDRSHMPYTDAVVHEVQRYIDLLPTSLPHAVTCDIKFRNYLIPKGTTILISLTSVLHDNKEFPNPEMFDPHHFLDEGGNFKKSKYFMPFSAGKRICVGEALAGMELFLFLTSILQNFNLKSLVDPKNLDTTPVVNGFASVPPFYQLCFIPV
Experiment notes: in vitro
Measured attribute: Cyp450 inhibition: CDNA-CYP2C9-MFC (% inhibition) (%)
Numbers only, in %.

Here is how some compounds turned out for Cyp450 inhibition: CDNA-CYP2C9-MFC (% inhibition).
| Smiles data | System under test | Val |
| --- | --- | --- |
| CC(C)CN(C[C@@H](O)[C@H](Cc1ccccc1)NC(=O)OCc1cncs1)C(=O)c1ccc2nc(N3CCOCC3)oc2c1 | CYP2C9 (Homo sapiens, UniProt P11712) | 95 |
| CC(C)(O)CN(C[C@@H](O)[C@H](Cc1ccccc1)NC(=O)OCc1cncs1)C(=O)c1ccc2nc(N3CCCC3)oc2c1 | CYP2C9 (Homo sapiens, UniProt P11712) | 99 |
| CCN(C)c1nc2ccc(C(=O)N(CCN(C)C)C[C@@H](O)[C@H](Cc3ccccc3)NC(=O)OCc3cncs3)cc2o1 | CYP2C9 (Homo sapiens, UniProt P11712) | 29 |

Record Cyp450 inhibition: CDNA-CYP2C9-MFC (% inhibition) for all entries; do not skip any.
1. CN(C)CCN(C[C@@H](O)[C@H](Cc1ccccc1)NC(=O)OCc1cncs1)C(=O)c1ccc2nc(N3CCCC3)oc2c1
2. CCN(C)c1nc2ccc(C(=O)N(C[C@@H](O)[C@H](Cc3ccccc3)NC(=O)OCc3cncs3)CC(C)(C)C)cc2o1
3. O=C(N[C@@H](Cc1ccccc1)[C@H](O)CN(CCN1CCCC1)C(=O)c1ccc2nc(N3CCCC3)oc2c1)OCc1cncs1
4. CCN(C)c1nc2ccc(C(=O)N(CCN3CCCC3)C[C@@H](O)[C@H](Cc3ccccc3)NC(=O)OCc3cncs3)cc2o1
5. O=C(N[C@@H](Cc1ccccc1)[C@H](O)CN(CC1CCC(F)(F)CC1)C(=O)c1ccc2nc(N3CCCC3)oc2c1)OCc1cncs1
6. CC(C)CN(C[C@@H](O)[C@H](Cc1ccccc1)NC(=O)OCc1cncs1)C(=O)c1ccc2nc(NCCCn3ccnc3)oc2c1
7. CN(C[C@@H](O)[C@H](Cc1ccccc1)NC(=O)OCc1cncs1)C(=O)c1ccc2nc(N3CCCC3)oc2c1
8. CC(C)CN(C[C@@H](O)[C@H](Cc1ccccc1)NC(=O)OCc1cncs1)C(=O)c1ccc2nc(-c3ccncc3)oc2c1

34
97
42
34
98
90
100
99

Please give Cyp450 inhibition: CDNA-CYP2C9-MFC (% inhibition), item by item, for the list that follows.
1. CCNc1nc2ccc(C(=O)N(C[C@@H](O)[C@H](Cc3ccccc3)NC(=O)OCc3cncs3)CC(C)(C)O)cc2o1
2. O=C(N[C@@H](Cc1ccccc1)[C@H](O)CN(CCN1CCOCC1)C(=O)c1ccc2nc(N3CCCC3)oc2c1)OCc1cncs1

1: 95; 2: 72

Reference for the values: patent US8350048B2
